Assign T/C to each entry below.
# System: L1210 leukemia ip in BDF1 mice, survival T/C
# protocol_details: NCI In Vivo Anticancer Drug Screen. Data for tumor model L1210 Leukemia (intraperitoneal) in B6D2F1 (BDF1) mice
# particulars: endpoint: mean survival time; dose: 200.0 mg/kg/injection; schedule: Q01DX009 (ip); vehicle: saline; higher = longer survival
Toxic doses and inconclusive results are not listed.

// known answers, use as guide
{"columns": ["compound", "tested_on", "T/C"],
 "data": [
  ["COC(=O)Cc1cc(=O)c2ccccc2[nH]1", "L1210 leukemia ip in BDF1 mice, survival T/C", "93 % of control"],
  ["CC(=O)OC1COC(NC(=O)NNc2ccccc2)C(OC(C)=O)C1OC(C)=O (configuration not stated)", "L1210 leukemia ip in BDF1 mice, survival T/C", "92 % of control"],
  ["CCC(N)Cc1ccc(OC)c(OC)c1 (configuration not stated)", "L1210 leukemia ip in BDF1 mice, survival T/C", "98 % of control"]
]}

Batch request: T/C per item, same order as input.
1. CN(CC(=O)O)Cc1ccccc1
2. O=C1c2ccccc2C(=O)c2c(O)ccc(O)c21
3. CCOC(=O)c1ccc(NC(=O)Nc2cc(Cl)ccc2OC)cc1
4. CCOC(=O)Cc1cc(Cl)c2ccc(Cl)cc2n1

1. 88 % of control
2. 102 % of control
3. 92 % of control
4. 90 % of control

* * *

# Test system: L1210 leukemia ip in BDF1 mice, survival T/C
# protocol_details: NCI In Vivo Anticancer Drug Screen. Data for tumor model L1210 Leukemia (intraperitoneal) in B6D2F1 (BDF1) mice
# particulars: endpoint: mean survival time; dose: 100.0 mg/kg/injection; schedule: Q04DX003 (ip); vehicle: saline with Tween-80; higher = longer survival
Inconclusive results and toxic doses are left out.
measured_property: T/C

Here is how some compounds turned out for T/C.
{"columns": ["compound", "tested_on", "result"],
 "data": [
  ["O=c1[nH]c(=S)n2ncnc2[nH]1", "L1210 leukemia ip in BDF1 mice, survival T/C", "109 % of control"],
  ["O=C(C1C2C=CC(C2)C1C(=O)N1CCOCC1)N1CCOCC1 (stereo unspecified)", "L1210 leukemia ip in BDF1 mice, survival T/C", "107 % of control"]
]}

For every item in the list below, what is its measured T/C?
1. O=C1OC(c2ccccc2)(C2(c3ccccc3)OC(=O)c3ccccc32)c2ccccc21 (stereo unspecified)
2. C=C(C)c1ccc(C)c(C)c1
3. CCCCCCCCCCCCN1CCCC(O)C1 (stereo unspecified)
4. CCOC(=O)CCC(NC(=O)c1ccc(N(C)S(=O)(=O)c2ccc(C)cc2)c2ccccc12)C(=O)OCC (stereo unspecified)
5. Nc1cc(Cl)c2cccnc2c1O
6. CCC1COC(Nc2cccc3c2CCCC3)=N1 (stereo unspecified)
7. CC(C)=C(Cl)C(C)(C)C(=O)O
8. O=C(CCCCCCCCC(=O)N/N=C/c1ccc(Cl)c(Cl)c1)N/N=C/c1ccc(Cl)c(Cl)c1

["90 % of control", "94 % of control", "93 % of control", "97 % of control", "100 % of control", "92 % of control", "103 % of control", "89 % of control"]

Please state, for each entry, its recorded T/C.
1. Cc1cc([N+](=O)[O-])ccc1S(=O)(=O)F
2. O=C(COc1ccc(Cl)c(Cl)c1)N(Cc1ccccc1)Cc1ccc[n+](Cc2ccc(S(=O)(=O)F)cc2)c1
3. Cc1c(Cl)cccc1NC(=O)Nc1nccs1
4. Oc1c(Br)cc(Br)cc1C=Nc1ccc(I)cc1.Oc1c(Br)cc(Br)cc1C=Nc1ccc(I)cc1.[Co]
5. O=C(Nc1ccc(Cl)cc1[N+](=O)[O-])Oc1ccc(-c2ccccc2)cc1Cl
6. C=CCOC(=O)C1c2ccccc2Cc2ccccc21
7. Cc1ccc(Cl)cc1NS(=O)(=O)c1ccc2ccccc2c1
8. Cc1cc([N+](=O)[O-])ccc1N=O

1: 100 % of control; 2: 102 % of control; 3: 101 % of control; 4: 98 % of control; 5: 97 % of control; 6: 97 % of control; 7: 96 % of control; 8: 98 % of control

Dear reader, for each entry below, please note its T/C.
1. Brc1ccc(N2N=NC3CNCC32)cc1 (stereo unspecified)
2. CCC(=S)Nc1ccc(Cl)cc1

1. 92 % of control
2. 91 % of control

* * *

# Tested on: L1210 leukemia ip in BDF1 mice, survival T/C
# protocol_details: NCI In Vivo Anticancer Drug Screen. Data for tumor model L1210 Leukemia (intraperitoneal) in B6D2F1 (BDF1) mice
# particulars: endpoint: mean survival time; dose: 200.0 mg/kg/injection; schedule: Q04DX002 (ip); vehicle: saline with Tween-80; higher = longer survival
Inconclusive results and toxic doses are left out.
measured_property: T/C

A selection of reference data follows.
{"columns": ["compound", "T/C"],
 "data": [
  ["O=S(=O)(c1ccc(N=NN2CCCC2)cc1)N(CCCl)CCCl", "101 % of control"],
  ["NC(=S)c1ncc(N)s1", "100 % of control"]
]}

For the 3 compounds below, give their T/C values.
1. COc1ccc(/C=C/C(=O)O)cc1
2. CCCCC[C@H](O)/C=C/[C@H]1[C@H](O)CC(=O)[C@@H]1C/C=C\CCCC(=O)O
3. CC1=CCCCC1O (stereo not given)

1. 98 % of control
2. 102 % of control
3. 96 % of control

* * *

# Test system: L1210 leukemia ip in BDF1 mice, survival T/C
# protocol_details: NCI In Vivo Anticancer Drug Screen. Data for tumor model L1210 Leukemia (intraperitoneal) in B6D2F1 (BDF1) mice
# particulars: endpoint: mean survival time; dose: 100.0 mg/kg/injection; schedule: Q04DX002 (ip); vehicle: Klucel (hydroxypropylcellulose) (HPC); higher = longer survival
Inconclusive results and toxic doses are left out.
What T/C was measured for each of the following?

// batch mode: one T/C value per listed entry
1. CCCCN(CCCC)S(=O)(=O)O
2. CC(=O)NC1Cc2cc(C)cc(C)c21 (stereo not given)

1. 115 % of control
2. 102 % of control

Parameter requested: T/C. Apply to each item below.
1. N#C/C(=C/c1ccccc1Cl)C(N)=O
2. COc1ccc(NC(=S)Nc2ccc(-c3ccc(NC(=S)Nc4ccc(OC)cc4)cc3)cc2)cc1
3. CN(C)c1ccc(N=Nc2ccc(S(=O)(=O)O)cc2)cc1

["100 % of control", "87 % of control", "92 % of control"]

* * *

# System: L1210 leukemia ip in BDF1 mice, survival T/C
# protocol_details: NCI In Vivo Anticancer Drug Screen. Data for tumor model L1210 Leukemia (intraperitoneal) in B6D2F1 (BDF1) mice
# particulars: endpoint: mean survival time; dose: 200.0 mg/kg/injection; schedule: Q01DX001 (ip); vehicle: carboxymethylcellulose (CMC); higher = longer survival
Inconclusive results and toxic doses are left out.
Assign T/C to each entry below.

Worked examples follow.
{"columns": ["compound", "T/C"],
 "data": [
  ["CCCCC(Cl)(CCCC)C(C)Sc1ccc([N+](=O)[O-])cc1 (stereo not given)", "94 % of control"],
  ["COC(=O)Nc1nc2ccccc2[nH]1", "97 % of control"],
  ["COc1ccccc1/C=C\\C=O", "100 % of control"],
  ["CC(=O)Nc1ccc2c(c1)-c1ccc(F)cc1C2", "96 % of control"]
]}

// assay L1210 leukemia ip in BDF1 mice, survival T/C, entry COC(=O)CC(=O)c1ccc2ccccc2n1 , T/C value = 97 % of control

* * *

# Test system: L1210 leukemia ip in BDF1 mice, survival T/C
# protocol_details: NCI In Vivo Anticancer Drug Screen. Data for tumor model L1210 Leukemia (intraperitoneal) in B6D2F1 (BDF1) mice
# particulars: endpoint: mean survival time; dose: 50.0 mg/kg/injection; schedule: Q01DX009 (ip); vehicle: saline; higher = longer survival
Inconclusive results and toxic doses are left out.
Task for the reader: assign each of the following compounds its reported T/C.

For orientation, consider the following solved cases.
{"columns": ["compound", "tested_on", "result"],
 "data": [
  ["OCCOCCN1CCN(C(c2ccccc2)c2ccc(Cl)cc2)CC1 (configuration not stated)", "L1210 leukemia ip in BDF1 mice, survival T/C", "103 % of control"],
  ["N#[N+]c1ccc(Br)cc1-c1nc(N)nc(N)n1", "L1210 leukemia ip in BDF1 mice, survival T/C", "100 % of control"],
  ["CCCCNC(C)C(=O)c1ccccc1 (configuration not stated)", "L1210 leukemia ip in BDF1 mice, survival T/C", "101 % of control"],
  ["C=COCCN(C)C", "L1210 leukemia ip in BDF1 mice, survival T/C", "90 % of control"],
  ["CCOC(=O)C(NC=O)C(=O)OCC", "L1210 leukemia ip in BDF1 mice, survival T/C", "101 % of control"]
]}

Give one value of T/C per listed compound.
1. C=CCOB(OCC=C)OCC=C
2. CC(=O)C[N+]12CN3CN(CN(C3)C1)C2

1. 106 % of control
2. 111 % of control

Take each entry in turn and give its T/C.
1. NNC(=O)c1ccccc1
2. CC(N)COCc1ccccc1 (configuration not stated)
3. O=[N+]([O-])c1ccc(N2CCCCC2)c([N+](=O)[O-])c1
4. NC(N)=NC(N)=Nc1ccc([As](=O)(O)O)c(O)c1
5. CCOC(=O)Cc1cc(Cl)c2ccc(Cl)cc2n1

["111 % of control", "97 % of control", "102 % of control", "98 % of control", "96 % of control"]
